B1: glmS ribozyme (parent)
chain: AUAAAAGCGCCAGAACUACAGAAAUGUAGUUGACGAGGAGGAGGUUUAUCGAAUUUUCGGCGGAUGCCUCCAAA

variants of: B1; assay: self-cleavage kobs at 640 uM GlcN6P; higher = faster cleavage; RNA array; settings: with glucosamine-6-phosphate
Variants at the floor of the assay were thinned out.
Provide the recorded self-cleavage kobs at 640 uM GlcN6P for the entries that follow.

Completed entries (count: 5):
[
  {
    "MUTATION_DESCRIPTOR": "A39U C71G",
    "self-cleavage kobs at 640 uM GlcN6P": "0.00022 s⁻¹"
  },
  {
    "MUTATION_DESCRIPTOR": "A15U G60U",
    "self-cleavage kobs at 640 uM GlcN6P": "< 1e-05 s⁻¹"
  },
  {
    "MUTATION_DESCRIPTOR": "G32C G35U A52G",
    "self-cleavage kobs at 640 uM GlcN6P": "< 1e-05 s⁻¹"
  },
  {
    "MUTATION_DESCRIPTOR": "C10G G40C C71G",
    "self-cleavage kobs at 640 uM GlcN6P": "< 1e-05 s⁻¹"
  },
  {
    "MUTATION_DESCRIPTOR": "G35A U69A",
    "self-cleavage kobs at 640 uM GlcN6P": "< 1e-05 s⁻¹"
  }
]

Count: 5. Required value per item: self-cleavage kobs at 640 uM GlcN6P.
1. C11A G60U
2. A15G G51C A52G G62A
3. G32A U65A C71U
4. C11A C16U U69G
5. A6U G9C C16G C71U

Result:
1. < 1e-05 s⁻¹
2. < 1e-05 s⁻¹
3. 5.38e-05 s⁻¹
4. 0.000429 s⁻¹
5. < 1e-05 s⁻¹
